The measured values listed here are drawn from patent US20220112288A1.

# Target or system: T1, Recombinant human CD4 (R&D Systems, Cat. 10327-CD) (human, UniProt P01730 26-390, limits assumed)
# T1 construct: Bought protein; also called huCD4
# Assay details: BLI (Octet Red 384), non-clonal supernatant captured on AMC sensors, 100 nM human CD4
Property measured: Response
Respond with the number and no other words.

{"Binder": "75110_01H18A (antibody, V domains shown, Tested as non-clonal AlivaMab Mouse hybridoma supernatant (human variable regions and human kappa, mouse Fc); also called ADS75110 non-clonal supernatant 01H18A) VH: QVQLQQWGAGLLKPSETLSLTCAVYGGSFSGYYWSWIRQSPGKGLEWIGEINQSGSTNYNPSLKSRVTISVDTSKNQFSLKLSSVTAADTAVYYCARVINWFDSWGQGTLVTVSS VL: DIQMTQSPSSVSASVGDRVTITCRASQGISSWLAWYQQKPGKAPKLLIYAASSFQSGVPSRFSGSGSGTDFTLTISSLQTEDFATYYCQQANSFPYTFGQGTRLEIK", "Response": 0.0657}

Which Response is listed for 75110_08H11A (antibody, V domains shown, Tested as non-clonal AlivaMab Mouse hybridoma supernatant (human variable regions and human kappa, mouse Fc); also called ADS75110 non-clonal supernatant 08H11A) VH: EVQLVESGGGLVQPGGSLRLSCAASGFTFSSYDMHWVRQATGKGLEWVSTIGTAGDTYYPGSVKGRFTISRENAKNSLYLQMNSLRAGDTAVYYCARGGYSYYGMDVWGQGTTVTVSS VL: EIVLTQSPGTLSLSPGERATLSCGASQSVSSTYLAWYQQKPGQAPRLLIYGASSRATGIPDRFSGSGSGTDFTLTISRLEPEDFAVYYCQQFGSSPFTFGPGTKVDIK ?
0.08

Moving on to 75110_04F22A (antibody, V domains shown, Tested as non-clonal AlivaMab Mouse hybridoma supernatant (human variable regions and human kappa, mouse Fc); also called ADS75110 non-clonal supernatant 04F22A) VH: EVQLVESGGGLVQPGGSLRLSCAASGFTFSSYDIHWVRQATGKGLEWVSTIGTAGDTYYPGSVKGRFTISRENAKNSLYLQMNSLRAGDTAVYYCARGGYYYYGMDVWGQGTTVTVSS VL: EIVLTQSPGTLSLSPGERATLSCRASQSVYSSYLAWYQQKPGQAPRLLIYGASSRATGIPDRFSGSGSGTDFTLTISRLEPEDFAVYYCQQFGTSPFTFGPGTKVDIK
0.05
